Source: patent US11685732B2

assay_system: KAT-7 (Homo sapiens (Human))
Sequence (O95251 other isoform, or with tags, fused parts or gaps): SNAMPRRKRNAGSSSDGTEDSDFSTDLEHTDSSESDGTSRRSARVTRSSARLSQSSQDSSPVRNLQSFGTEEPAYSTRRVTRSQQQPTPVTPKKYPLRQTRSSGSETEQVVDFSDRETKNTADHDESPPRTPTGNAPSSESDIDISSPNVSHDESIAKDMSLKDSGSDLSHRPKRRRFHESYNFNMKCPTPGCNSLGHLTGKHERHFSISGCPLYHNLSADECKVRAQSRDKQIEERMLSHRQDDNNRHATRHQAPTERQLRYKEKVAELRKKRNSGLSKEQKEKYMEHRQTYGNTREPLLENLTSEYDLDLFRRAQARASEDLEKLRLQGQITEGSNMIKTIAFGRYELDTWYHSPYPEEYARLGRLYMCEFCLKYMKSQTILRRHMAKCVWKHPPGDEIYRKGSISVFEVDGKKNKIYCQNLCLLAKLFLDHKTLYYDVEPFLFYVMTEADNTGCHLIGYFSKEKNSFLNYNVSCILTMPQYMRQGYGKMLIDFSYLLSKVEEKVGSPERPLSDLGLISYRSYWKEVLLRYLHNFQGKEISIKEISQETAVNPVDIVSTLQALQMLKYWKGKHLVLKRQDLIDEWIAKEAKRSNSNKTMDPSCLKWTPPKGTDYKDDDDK
assay_procedure: KAT-7 biochemical inhibition assay (SAMDI mass spectrometry)
metric: IC50

Example results:
{"columns": ["compound", "IC50"],
 "data": [
  ["Cn1cnc(-c2cc(Cl)c(F)c(C(=O)NNS(=O)(=O)CC3CCC4CCC3N4C(=O)OC(C)(C)C)c2)c1 (stereo not shown) [Compound I-250]", "< 10 µM"],
  ["CNc1ccc(S(=O)(=O)NNC(=O)c2cc(-c3cn(C)cn3)cc(Cl)c2F)cc1 [Compound I-382]", "< 10 µM"],
  ["Cn1cnc(-c2cc(Cl)c(F)c(C(=O)NNS(=O)(=O)C[C@H]3CC[C@H](N(C)CC(F)(F)F)CC3)c2)c1 [Compound I-471]", "< 10 µM"],
  ["Cc1ncn(-c2cc(Cl)c(F)c(C(=O)NNS(=O)(=O)CC3CCOCC3)c2)n1 [Compound I-74]", "10 to 50 µM"],
  ["Cn1cnc(-c2cc(Cl)c(F)c(C(=O)NNS(=O)(=O)CC3CCCC(F)(F)C3)c2)c1 (stereo not shown) [Compound I-342]", "< 10 µM"]
]}

IN: Given the entry Cn1cnc(-c2cc(Cl)c(F)c(C(=O)NNS(=O)(=O)C[C@H]3CC[C@@H](NC(=O)C4CCC4)CC3)c2)c1 [Compound I-246] , report its measured IC50.
OUT: < 10 µM

IN: Given the entry CN1CCC(CS(=O)(=O)NNC(=O)c2cc(-c3cn(C)cn3)cc(Cl)c2F)C1 (stereo not shown) [Compound I-79] , report its measured IC50.
OUT: < 10 µM

IN: Given the entry Cn1cnc(-c2cc(Cl)c(F)c(C(=O)NNS(=O)(=O)C[C@H]3C[C@H]4CC[C@@H]3O4)c2)c1 [Compound I-298] , report its measured IC50.
OUT: < 10 µM

IN: Given the entry CCS(=O)(=O)N1CCCC(CS(=O)(=O)NNC(=O)c2cc(-c3cn(C)cn3)cc(Cl)c2F)C1 (stereo not shown) [Compound I-82] , report its measured IC50.
OUT: < 10 µM

====

assay_system: KAT-5 (Homo sapiens (Human))
Sequence (Q92993 other isoform, or with tags, fused parts or gaps): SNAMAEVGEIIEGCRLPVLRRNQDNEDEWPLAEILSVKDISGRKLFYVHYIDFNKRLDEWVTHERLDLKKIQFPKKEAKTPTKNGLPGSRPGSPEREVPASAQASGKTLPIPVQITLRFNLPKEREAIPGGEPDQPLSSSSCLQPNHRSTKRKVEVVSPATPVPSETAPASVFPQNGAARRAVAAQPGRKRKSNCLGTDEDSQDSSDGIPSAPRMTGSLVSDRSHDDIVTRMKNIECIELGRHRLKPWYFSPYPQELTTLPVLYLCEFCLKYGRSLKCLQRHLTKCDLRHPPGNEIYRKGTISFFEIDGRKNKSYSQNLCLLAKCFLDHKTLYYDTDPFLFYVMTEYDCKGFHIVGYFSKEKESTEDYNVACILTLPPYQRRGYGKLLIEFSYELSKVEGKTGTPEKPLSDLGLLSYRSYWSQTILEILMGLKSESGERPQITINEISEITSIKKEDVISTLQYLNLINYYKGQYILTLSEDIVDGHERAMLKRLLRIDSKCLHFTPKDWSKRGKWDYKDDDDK
assay_procedure: KAT-5 biochemical inhibition assay (SAMDI mass spectrometry)
Listed below: IC50 values for each entry.

{"columns": ["molecule", "IC50"],
 "data": [
  ["COc1ccc(CN(C)C(=O)N2CCCC(CS(=O)(=O)NNC(=O)c3cc(-c4cn(C)cn4)cc(Cl)c3F)C2)cc1 (centres unmarked) [Compound I-171]", "< 10 µM"]
]}

IN: Given the entry CCc1cccc(S(=O)(=O)NNC(=O)c2cc(-c3ccccn3)cc(Cl)c2F)c1 [Compound I-478] , report its measured IC50.
OUT: < 10 µM

IN: Given the entry Cc1ncn(-c2cc(Cl)c(F)c(C(=O)NNS(=O)(=O)C3CCOCC3)c2)n1 [Compound I-77] , report its measured IC50.
OUT: 10 to 50 µM

IN: Given the entry COCCn1cnc(-c2cc(C)c(F)c(C(=O)NNS(=O)(=O)CC3CCCN(C(=O)COC)C3)c2)c1 (centres unmarked) [Compound I-137] , report its measured IC50.
OUT: 10 to 50 µM

IN: Given the entry Cc1cn(-c2cc(Cl)c(F)c(C(=O)NNS(=O)(=O)CC3CCOCC3)c2)cn1 [Compound I-49] , report its measured IC50.
OUT: > 100 µM

IN: Given the entry Cn1cnc(-c2cc(Cl)c(F)c(C(=O)NNS(=O)(=O)Cc3ccn(C)n3)c2)c1 [Compound I-479] , report its measured IC50.
OUT: < 10 µM

IN: Given the entry CN(C)C(=O)N[C@H]1CC[C@@H](CS(=O)(=O)NNC(=O)c2cc(-c3cn(C)cn3)cc(Cl)c2F)CC1 [Compound I-163] , report its measured IC50.
OUT: < 10 µM

IN: Given the entry Cn1cnc(-c2cc(Cl)c(F)c(C(=O)NNS(=O)(=O)C[C@H]3C[C@H]4CC[C@@H]3O4)c2)c1 [Compound I-298] , report its measured IC50.
OUT: < 10 µM

IN: Given the entry Cc1cc(-c2cn(C)cn2)cc(C(=O)NNS(=O)(=O)C2CCOCC2)c1F [Compound I-131] , report its measured IC50.
OUT: 10 to 50 µM

IN: Given the entry CC(=O)N[C@H]1CC[C@@H](CS(=O)(=O)NNC(=O)c2cc(-c3cn(C)cn3)cc(Cl)c2F)CC1 [Compound I-184] , report its measured IC50.
OUT: < 10 µM

IN: Given the entry CCNC(=O)N[C@H]1C[C@@H](CS(=O)(=O)NNC(=O)c2cc(-c3cn(C)cn3)cc(Cl)c2F)C1 [Compound I-107] , report its measured IC50.
OUT: < 10 µM

====

assay_system: KAT-8 (Homo sapiens (Human), UniProt Q9H7Z6)
Sequence (Q9H7Z6 other isoform, or with tags, fused parts or gaps): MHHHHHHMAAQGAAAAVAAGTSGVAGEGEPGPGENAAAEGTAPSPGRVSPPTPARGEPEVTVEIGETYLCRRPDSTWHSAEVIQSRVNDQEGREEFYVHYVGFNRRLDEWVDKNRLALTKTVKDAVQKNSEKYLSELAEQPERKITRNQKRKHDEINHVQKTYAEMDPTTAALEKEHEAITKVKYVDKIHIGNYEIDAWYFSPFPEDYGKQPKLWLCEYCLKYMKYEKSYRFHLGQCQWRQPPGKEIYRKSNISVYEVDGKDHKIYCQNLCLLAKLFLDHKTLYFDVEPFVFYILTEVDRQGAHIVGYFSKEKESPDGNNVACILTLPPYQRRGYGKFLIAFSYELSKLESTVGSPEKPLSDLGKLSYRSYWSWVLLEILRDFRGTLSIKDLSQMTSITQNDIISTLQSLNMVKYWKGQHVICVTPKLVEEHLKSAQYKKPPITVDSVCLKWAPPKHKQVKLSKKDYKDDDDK
assay_procedure: KAT-8 biochemical inhibition assay (SAMDI mass spectrometry)
pIC50: −log10 of the molar value.
Listed below: pIC50 values for each entry.

Example results:
{"columns": ["compound", "pIC50"],
 "data": [
  ["Cn1c(Cl)nc(-c2cc(Cl)c(F)c(C(=O)NNS(=O)(=O)C3CCOCC3)c2)c1Cl", "< 4.00"],
  ["COCCNC(=O)N1CCCC(CS(=O)(=O)NNC(=O)c2cc(-c3cn(C)cn3)cc(Cl)c2F)C1 (stereo not drawn)", "4.30 to 5.00"],
  ["COc1ccc(CNC(=O)N[C@H]2C[C@H](CS(=O)(=O)NNC(=O)c3cc(-c4cn(C)cn4)cc(Cl)c3F)C2)cc1", "4.30 to 5.00"]
]}

IN: Given the entry Cn1cnc(-c2cc(Cl)c(F)c(C(=O)NNS(=O)(=O)CC3CCC(NC(=O)OC(C)(C)C)C3)c2)c1 (stereo not drawn) , report its measured pIC50.
OUT: 4.30 to 5.00

IN: Given the entry Cn1cnc(-c2cc(Cl)c(F)c(C(=O)NNS(=O)(=O)C3CCN(C(=O)OC(C)(C)C)CC3)c2)c1 , report its measured pIC50.
OUT: < 4.00

IN: Given the entry COCCc1nc(-c2cc(Cl)c(F)c(C(=O)NNS(=O)(=O)CC3CCCCC3)c2)cn1C , report its measured pIC50.
OUT: 4.30 to 5.00

IN: Given the entry Cn1cc(-c2cc(Cl)c(F)c(C(=O)NNS(=O)(=O)CC3CCOCC3)c2)cn1 , report its measured pIC50.
OUT: < 4.00

IN: Given the entry Cc1nc(-c2cc(Cl)c(F)c(C(=O)NNS(=O)(=O)CC3CCOCC3)c2)co1 , report its measured pIC50.
OUT: 4.30 to 5.00

IN: Given the entry COc1ccc(CNC(=O)N2CCC(CS(=O)(=O)NNC(=O)c3cc(-c4cn(C)cn4)cc(Cl)c3F)C2)cc1 (stereo not drawn) , report its measured pIC50.
OUT: 4.30 to 5.00

IN: Given the entry Cn1cnc(-c2cc(Cl)c(Cl)c(C(=O)NNS(=O)(=O)CC3CCCCC3)c2)c1 , report its measured pIC50.
OUT: < 4.00

IN: Given the entry Cn1cnc(-c2cc(Cl)c(F)c(C(=O)NNS(=O)(=O)CC3CCCC(NC(=O)Cc4ccccn4)C3)c2)c1 (stereo not drawn) , report its measured pIC50.
OUT: 4.30 to 5.00

IN: Given the entry CN(C)C(=O)N(C)[C@H]1CC[C@@H](CS(=O)(=O)NNC(=O)c2cc(-c3cn(C)cn3)cc(Cl)c2F)CC1 , report its measured pIC50.
OUT: 4.30 to 5.00

====

assay_system: KAT-8 (Homo sapiens (Human))
assay_procedure: KAT-8 biochemical inhibition assay (SAMDI mass spectrometry)
Listed below: IC50 values for each entry.

IN: Given the entry Cn1cnc(-c2cc(Cl)c(F)c(C(=O)NNS(=O)(=O)C[C@H]3CC[C@@H](NC(N)=O)CC3)c2)c1 [Compound I-200] , report its measured IC50.
OUT: < 10 µM

IN: Given the entry Cn1cnc(-c2cc(Cl)c(F)c(C(=O)NNS(=O)(=O)C3CCOCC3)c2)c1 [Compound I-9] , report its measured IC50.
OUT: > 100 µM

IN: Given the entry CC(=O)Nc1ccccc1S(=O)(=O)NNC(=O)c1cc(-c2cn(C)cn2)cc(Cl)c1F [Compound I-370] , report its measured IC50.
OUT: 10 to 50 µM

IN: Given the entry Cn1cnc(-c2cc(Cl)c(F)c(C(=O)NNS(=O)(=O)CC3CCCC(NC(=O)OC(C)(C)C)C3)c2)c1 (stereo not shown) [Compound I-102] , report its measured IC50.
OUT: 10 to 50 µM

====

assay_system: KAT-6A (Homo sapiens (Human))
Sequence (Q92794 other isoform, or with tags, fused parts or gaps): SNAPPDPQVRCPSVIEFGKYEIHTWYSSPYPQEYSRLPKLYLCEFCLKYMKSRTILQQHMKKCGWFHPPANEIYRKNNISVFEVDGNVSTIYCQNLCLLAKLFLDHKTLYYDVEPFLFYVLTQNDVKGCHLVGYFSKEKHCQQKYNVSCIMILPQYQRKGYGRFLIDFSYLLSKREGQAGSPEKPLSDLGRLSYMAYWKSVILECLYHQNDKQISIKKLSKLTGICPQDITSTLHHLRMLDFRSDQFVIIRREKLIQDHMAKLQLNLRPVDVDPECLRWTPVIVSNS
assay_procedure: KAT-6A biochemical inhibition assay (SAMDI mass spectrometry)
study_conditions: Table 5
Listed below: IC50 values for each entry.

{"columns": ["compound", "metric", "result"],
 "data": [
  ["CCN1CCCC(CS(=O)(=O)NNC(=O)c2cc(-c3cccc(C)c3)cc(Cl)c2F)C1 (stereo not drawn)", "IC50", "> 100 µM"],
  ["Cc1cccc(-c2cc(Cl)c(F)c(C(=O)NNS(=O)(=O)C(C)C3CCCNC3)c2)c1 (stereo not drawn)", "IC50", "> 100 µM"],
  ["Cc1cccc(-c2cc(Cl)c(F)c(C(=O)NNS(=O)(=O)CC3CCCN(C)C3)c2)c1 (stereo not drawn)", "IC50", "> 100 µM"],
  ["Cc1cccc(-c2cc(Cl)c(F)c(C(=O)NNS(=O)(=O)CC3CCCCNC3)c2)c1 (stereo not drawn)", "IC50", "> 100 µM"],
  ["Cc1cccc(-c2cc(Cl)c(F)c(C(=O)NNS(=O)(=O)CC3CNCCO3)c2)c1 (stereo not drawn)", "IC50", "10 to 50 µM"]
]}

// below: IC50 requested for another compound
IN: Given the entry CNCCCS(=O)(=O)NNC(=O)c1cc(-c2cccc(C)c2)cc(Cl)c1F , report its measured IC50.
OUT: > 100 µM
